Target: Msm. GyrB (Mycolicibacterium smegmatis)
Sequence (A0QNE0 whole entry): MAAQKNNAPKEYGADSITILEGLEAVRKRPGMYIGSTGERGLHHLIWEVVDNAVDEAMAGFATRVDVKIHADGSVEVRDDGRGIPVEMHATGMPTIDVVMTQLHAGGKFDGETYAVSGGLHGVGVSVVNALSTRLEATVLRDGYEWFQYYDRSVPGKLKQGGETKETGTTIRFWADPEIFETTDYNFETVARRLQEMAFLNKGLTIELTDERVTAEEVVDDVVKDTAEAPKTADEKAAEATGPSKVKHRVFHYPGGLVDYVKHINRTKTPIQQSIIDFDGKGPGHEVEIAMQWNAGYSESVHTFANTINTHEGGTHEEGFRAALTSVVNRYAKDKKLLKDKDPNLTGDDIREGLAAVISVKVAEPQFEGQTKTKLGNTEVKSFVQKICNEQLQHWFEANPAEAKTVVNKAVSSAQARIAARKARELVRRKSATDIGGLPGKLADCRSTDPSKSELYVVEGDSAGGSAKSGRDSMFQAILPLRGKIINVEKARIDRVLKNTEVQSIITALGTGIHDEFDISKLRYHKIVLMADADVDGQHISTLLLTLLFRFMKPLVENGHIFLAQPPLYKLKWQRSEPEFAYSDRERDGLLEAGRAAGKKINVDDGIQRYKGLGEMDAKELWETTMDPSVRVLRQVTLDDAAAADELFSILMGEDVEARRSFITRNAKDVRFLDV
# pIC50 per entry
pIC50 field: float, defined as -log10 of concentration (mol/L).

// solved cases for pIC50 follow
• CCNC(=O)Nc1nc2cc(-c3cncc(C(=O)OCC)c3)cnc2s1 = 7.29
• C=CCNC(=O)Nc1nc2cc(-c3cncnc3)c(OCc3ccccn3)nc2s1 = 7.55
• C=CCNC(=O)Nc1nc2cc(-c3cnc(OC)nc3)c(OCCN(C)C)nc2s1 = 6.67

Exercise: Note down pIC50 recorded for CCNC(=O)Nc1nc2cc(-c3cccnc3)c(OCCOC(C)C)nc2s1
Key: 8.04

Exercise: Please give the documented pIC50 of C=CCNC(=O)Nc1nc2cc(-c3cncc(C(=O)N4CCOCC4)c3)cnc2s1
Key: 5.84

Exercise: Assign pIC50 to the following record: C=CCNC(=O)Nc1nc2cc(-c3cncc(C(=O)N(C)C)c3)c(C)nc2s1
Key: 6.19

Exercise: Using known records, supply pIC50 for CCNC(=O)Nc1nc2cc(-c3cncnc3)c(OCC(C)C)nc2s1
Key: 8.36

Exercise: Note pIC50 for the molecule shown: CCNC(=O)Nc1nc2cc(-c3cncnc3)c(OCCOC(C)C)nc2s1
Key: 7.55

Exercise: Report measured pIC50; entry is C=CCNC(=O)Nc1nc2cc(-c3cnc(OC)nc3)c(OCCN3CCCC3)nc2s1
Key: 6.59

Exercise: Give the reported pIC50 for this molecule. CCNC(=O)Nc1nc2cc(-c3ccc(F)nc3)c(OC3CCOC3)nc2s1 (stereo not drawn)
Key: 8.45

Exercise: Determine from records and report pIC50 for C=CCNC(=O)Nc1nc2cc(-c3cc[nH]n3)c(C)nc2s1
Key: 5.74

Exercise: Please supply the value of reported pIC50 for the item C=CCNC(=O)Nc1nc2cc(-c3cncc(C(=O)O)c3)cnc2s1
Key: 6.73

Exercise: Please indicate pIC50 recorded for CCNC(=O)Nc1nc2cc(-c3cncnc3)c(OCCC(C)C)nc2s1
Key: 7.93

Exercise: Return pIC50 (reported value) for this molecule: CCNC(=O)Nc1nc2cc(-c3ccc(C(F)(F)F)nc3)c(OCC3CCOC3)nc2s1 (stereo not drawn)
Key: 8.16
